Listed here are binders together with their documented Anti-PSMA Fab signal in the presence of PSMA.
Target: T1, Anti-PSMA Fab (SEQ ID NOs: 19, 20)
T1 construct: also called 006 PSMA Fab
Test: phage binding ELISA; PSMA Fab on plate pre-incubated with PSMA antigen as competitor, anti-M13 HRP detection;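 note: crude clonal phage supernatants added without washing to wells preincubated with PSMA in blocking buffer, compared with wells receiving blocking buffer only, then bound phage detected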
Where no end group is shown, it is not given here.
assayEndpoint: Anti-PSMA Fab signal in the presence of PSMA

{"binder": "VDRWCIPEWMCNEL [Phage-2260]", "measuredValue": 0.084}
{"binder": "MMKWCTPEWMCAMV (cysteine pairing not given here; also: displayed on phage, fused to pIII) [Phage-2258]", "measuredValue": 0.0753}
{"binder": "YSHLCIPSWMCSWT [Phage-2263]", "measuredValue": 0.111}
{"binder": "PAKWCIPMWMCQVD [Phage-2254]", "measuredValue": 0.0779}
{"binder": "ITKLCTPPWMCTMV [Phage-2267]", "measuredValue": 0.0558}
{"binder": "GDRWCIPEWMCGVI [Phage-2265]", "measuredValue": 0.0664}
{"binder": "TEKWCIPAWMCQVS [Phage-2261]", "measuredValue": 0.0738}
{"binder": "NERWCIPSWMCQEA [Phage-2253]", "measuredValue": 0.0574}
